Molecular target: Thromboxane A2 receptor (Cavia porcellus)
Experiment: Antagonistic activity against TP-receptor by inhibition of U 46619-induced contraction of isolated guinea pig trachea
Settings: read-out: pA2 (converted)
For each of the compounds below, state its Kb.
Numeric only. Scale: nM

INPUT: Suppose we examine the compound O=C(O)CCC/C=C\C[C@@H]1CN(S(=O)(=O)c2cccc3ccccc23)C[C@@H]1c1ccccc1O ; what Kb value has been reported?
OUTPUT: 6.31

INPUT: Item: O=C(O)CC/C=C\C[C@@H]1CN(Cc2ccccc2)C[C@@H]1c1ccccc1O
OUTPUT: 251

INPUT: Item: O=C(O)CC/C=C\C[C@@H]1CN(S(=O)(=O)c2ccc(Cl)cc2)C[C@H]1c1ccccc1O
OUTPUT: 12.6

INPUT: Item: O=C(O)CC/C=C\C[C@@H]1CN(S(=O)(=O)c2ccc(Cl)cc2)C[C@@H]1c1ccccc1O
OUTPUT: 1
